- measurement-description: Expected oral half-life in humans (from animal data)
- conditions: human, based on rat, dog, monkey data
measurement-label: half-life

Can you look up the measured half-life of `C[C@H](NC(=O)c1c(N)nn2cccnc12)c1cc2cccc(C#Cc3cnn(C)c3)c2c(=O)n1-c1ccccc1` for me?
10 to 13 h

###

- measurement-description: Unbound concentrations in tumor and plasma, LLC model, 12 days daily oral administration
- Type: in vivo, mouse
- conditions: C57 Albino, mouse; Plasma, 3 mg/kg, 2 h, 12 days daily oral administration in NMP solution; read-out: Free Conc
measurement-label: concentration at 2 h

Can you look up the measured concentration at 2 h of C[C@H](NC(=O)c1c(N)nn2cccnc12)c1cc2cccc(C#Cc3cnn(C)c3)c2c(=O)n1-c1ccccc1 [Compound BB] for me?
25.9 nM
